system: MDA-MB-231 cells; assay: Inhibition of proliferation of triple-negative breast cancer cells, CellTiter-Glo; type: cell-based; conditions: Homo sapiens, 120 h; MDA-MB-231, cultured for 5 days
Counter-ions that a name gives are not always drawn.
ASSAY METRIC: GI50

COc1cc(-c2c(C)noc2C)ccc1Nc1nc(NC2CCOCC2)c2c(C#N)c[nH]c2n1 [Example 91]; < 100 nM
Cn1nccc1-c1ccc(Nc2nc(NC3CCCC3)c3c(C#N)c[nH]c3n2)c2c1CCO2 [Example 33]; < 100 nM
CCOc1cc(-c2ccnn2C)ccc1Nc1nc(NC2CCCCC2)c2c(C#N)c[nH]c2n1 [Example 36]; < 100 nM

Give MDA-MB-231 cells GI50 for C=CC(=O)Nc1cc(-c2ccnn2C)ccc1Nc1nc(NC2CCCC2)c2c(C#N)c[nH]c2n1 [Example 142]
100 to 1000 nM

Give MDA-MB-231 cells GI50 for COc1cc(-c2cnn(C)c2)c(F)cc1Nc1nc(NC2CCOCC2)c2c(C#N)c[nH]c2n1 [Example 124]
< 100 nM

Give MDA-MB-231 cells GI50 for COc1cc(-c2ccc(F)nc2)ccc1Nc1nc(NC2CCCCC2)c2c(C#N)c[nH]c2n1 [Example 24]
< 100 nM

Give MDA-MB-231 cells GI50 for COc1cc(N2CCCC2=O)ccc1Nc1nc(NC2COC2)c2c(C#N)c[nH]c2n1 [Example 73]
< 100 nM

Give MDA-MB-231 cells GI50 for COc1cc(-c2cnn(C)c2)c(F)cc1Nc1nc(NC2CCCCC2)c2c(C#N)c[nH]c2n1 [Example 126]
> 1000 nM

Give MDA-MB-231 cells GI50 for Cn1nccc1-c1ccc(Nc2cc(NC3CCCC3)c3c(C#N)c[nH]c3n2)c2c1OCCO2 [Example 88]
< 100 nM

Give MDA-MB-231 cells GI50 for COc1cc(-c2cnn(C)c2)ccc1Nc1nc(NC2CCOC(C)(C)C2)c2c(C#N)c[nH]c2n1 (centres unmarked) [Example 144]
< 100 nM

Give MDA-MB-231 cells GI50 for Cn1nccc1-c1ccc(Nc2nc(NC3CCOCC3)c3c(C(F)(F)F)c[nH]c3n2)c2c1OCCO2 [Example 107]
< 100 nM

Give MDA-MB-231 cells GI50 for Cn1nccc1-c1ccc(Nc2nc(NC3CCCC3)c3c(C(F)(F)F)c[nH]c3n2)c2c1OCCO2 [Example 133]
100 to 1000 nM

Give MDA-MB-231 cells GI50 for CC(C)S(=O)(=O)CCNc1nc(Nc2ccc(-c3ccnn3C)c3c2OCCO3)nc2[nH]cc(C#N)c12 [Example 83, trifluoroacetate]
100 to 1000 nM

Give MDA-MB-231 cells GI50 for CNc1nc(Nc2ccc(-c3ccnn3C)c3c2OCCO3)nc2[nH]cc(C#N)c12 [Example 75]
< 100 nM

Give MDA-MB-231 cells GI50 for CC(C)COc1cc(N2CCCC2=O)ccc1Nc1nc(NC2CCCC2)c2c(C#N)c[nH]c2n1 [Example 28]
> 1000 nM

Give MDA-MB-231 cells GI50 for COc1cc(-c2cnn(C3COC3)c2)ccc1Nc1nc(NC2CCCCC2)c2c(C#N)c[nH]c2n1 [Example 20]
< 100 nM

Give MDA-MB-231 cells GI50 for COc1cc(-c2c(C)noc2C)ccc1Nc1nc(NC2C[C@H]3CC[C@@H]2C3)c2c(C#N)c[nH]c2n1 (some centres unmarked) [Example 146]
< 100 nM

Give MDA-MB-231 cells GI50 for Cn1nccc1-c1ccc(Nc2nc(C3CC3)c3c(C#N)c[nH]c3n2)c2c1OCCO2 [Example 112]
100 to 1000 nM

Give MDA-MB-231 cells GI50 for CCOc1cc(-c2nncn2C)ccc1Nc1nc(NCCS(C)(=O)=O)c2c(C#N)c[nH]c2n1 [Example 14]
100 to 1000 nM

Give MDA-MB-231 cells GI50 for COc1cc(-c2c(C)noc2C)ccc1Nc1nc(NC2CCOCC2)c2c(C(F)(F)F)c[nH]c2n1 [Example 131]
< 100 nM

Give MDA-MB-231 cells GI50 for N#Cc1c[nH]c2nc(Nc3ccc(N4CCCS4(=O)=O)c(F)c3)nc(NC3CCOCC3)c12 [Example 29]
100 to 1000 nM

Give MDA-MB-231 cells GI50 for Cn1nccc1-c1ccc(Nc2nc(NC3CCCCCC3)c3c(C#N)c[nH]c3n2)c2c1OCCO2 [Example 59]
< 100 nM

Give MDA-MB-231 cells GI50 for CCCCNc1nc(Nc2ccc(-c3nncn3C)cc2OCC)nc2[nH]cc(C#N)c12 [Example 11]
< 100 nM

Give MDA-MB-231 cells GI50 for COC[C@@H](C)Nc1nc(Nc2ccc(-c3ccnn3C)cc2OC)nc2[nH]cc(C#N)c12 [Example 168]
< 100 nM

Give MDA-MB-231 cells GI50 for COc1cc(-c2ccnn2C)ccc1Nc1nc(OC2CCCCC2)c2c(C#N)c[nH]c2n1 [Example 45]
< 100 nM

----------
Attribute: GI50
test system: MDA-MB-231 cells; assay: Inhibition of proliferation of triple-negative breast cancer cells, CellTiter-Glo; format: cell-based; conditions: Homo sapiens, 120 h; MDA-MB-231, cultured for 5 days

So what does the record say about GI50 for COc1cc(N2CCCC2=O)ccc1Nc1nc(NCC2CCC2)c2c(C#N)c[nH]c2n1 ?
> 1 µM

So what does the record say about GI50 for CN(C)S(=O)(=O)CCNc1nc(Nc2ccc(-c3ccnn3C)c3c2OCCO3)nc2[nH]cc(C#N)c12 ?
0.1 to 1 µM

So what does the record say about GI50 for COc1cc(-c2ccnn2C)ccc1Nc1nc(NC2CCCCC2)c2c(C#N)c[nH]c2n1 ?
< 0.1 µM

So what does the record say about GI50 for COc1cc(-c2ccnn2C)ccc1Nc1nc(NC2CCCCC2)c2c(Cl)c[nH]c2n1 ?
> 1 µM

So what does the record say about GI50 for COCCNc1nc(Nc2ccc(-c3c(C)noc3C)cc2OC)nc2[nH]cc(C#N)c12 ?
< 0.1 µM

So what does the record say about GI50 for CNc1nc(Nc2ccc(-c3ccnn3C)cc2OC)nc2[nH]cc(C#N)c12 ?
> 1 µM

So what does the record say about GI50 for Cn1cc(-c2ccc(Nc3nc(NC4CCOCC4)c4c(C#N)c[nH]c4n3)c3c2OCCO3)cn1 ?
< 0.1 µM

So what does the record say about GI50 for Cn1cc(-c2ccc(Nc3nc(NC4C[C@H]5CC[C@@H]4C5)c4c(C#N)c[nH]c4n3)c3c2OCCO3)cn1 (some centres unmarked) ?
< 0.1 µM

----------
tested on: MDA-MB-231 cells; experiment: Inhibition of proliferation of triple-negative breast cancer cells, CellTiter-Glo; format: cell-based; settings: Homo sapiens, 120 h; MDA-MB-231, cultured for 5 days
ASSAY METRIC: GI50

Known GI50 results, listed for orientation:
CC(C)Nc1nc(Nc2ccc(-c3ccnn3C)c3c2OCCO3)nc2[nH]cc(C#N)c12; < 100 nM
COc1cc(-c2cccc(O)c2)ccc1Nc1nc(NC2CCOCC2)c2c(C#N)c[nH]c2n1; < 100 nM
Cn1nccc1-c1ccc(Nc2nc(NC3CCCC(F)(F)C3)c3c(C#N)c[nH]c3n2)c2c1OCCO2 (stereo not shown); < 100 nM
COc1cc(N2CCCCS2(=O)=O)ccc1Nc1nc(NC2CCOCC2)c2c(C#N)c[nH]c2n1; < 100 nM
N#Cc1c[nH]c2nc(Nc3ccc(N4CCCCS4(=O)=O)c(F)c3)nc(NC3CCOCC3)c12; < 100 nM
COc1cc(-c2ccnn2C)ccc1Nc1nc(C2=CCCCC2)c2c(C#N)c[nH]c2n1; 100 to 1000 nM
COc1cc(-c2c(C)noc2C)ccc1Nc1nc(NC2CCCCCC2)c2c(C#N)c[nH]c2n1; < 100 nM
COc1cc(Nc2nc(NC3CCCC3)c3c(C#N)c[nH]c3n2)ccc1-c1ccnn1C; 100 to 1000 nM

So what does the record say about GI50 for CCOc1cc(N2CCCC2=O)ccc1Nc1nc(NC2CCCCC2)c2c(C#N)c[nH]c2n1 ?
100 to 1000 nM

So what does the record say about GI50 for COc1cc(-c2c(C)noc2C)c(F)cc1Nc1nc(NC2CCCC2)c2c(C#N)c[nH]c2n1 ?
100 to 1000 nM

So what does the record say about GI50 for COc1cc(-c2nncn2C)ccc1Nc1nc(NC2CCCC(F)(F)C2)c2c(C#N)c[nH]c2n1 (stereo not shown) ?
< 100 nM

----------
test system: MDA-MB-231 cells; assay: Inhibition of proliferation of triple-negative breast cancer cells, CellTiter-Glo; assay type: cell-based; conditions: Homo sapiens, 120 h; MDA-MB-231, cultured for 5 days
Attribute: GI50

So what does the record say about GI50 for COc1cc(Nc2nc(NC3CCCCC3)c3c(C#N)c[nH]c3n2)ccc1-c1c(C)noc1C [Example 140] ?
< 100 nM
